# System name: T1, RsmE P64W (Pseudomonas protegens, UniProt P0DPC3, P64W)
# T1 sequence: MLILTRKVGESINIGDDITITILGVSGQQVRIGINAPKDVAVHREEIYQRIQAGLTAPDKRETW
# Measurement description: ITC; other site of the dimer holds one SL2 RNA; 50 mM potassium phosphate pH 7.2, 30 mM NaCl, 298 K; 10 uM monomer in the cell
# Settings: tags: C-His6 (kept); chain copies: 2; two separate hairpins, one per site
Metric: pKd
Just so you know, pKd here is -log10 of the concentration in molar units; reply with that number alone.

pKd lookup needed for hcnA SD (ssRNA, T7 transcript (5' triphosphate expected)) RNA 1: GGGCUUCACGGAUGAAGCCC RNA 2: GGGCCAUCAAGGACGAUGGUCC , thanks.
6.53
